- Experimental target: T1, human ferroportin (SLC40A1) fused in frame with GFP, stably expressed on HEK293 cells (human, UniProt Q9NP59 1-571)
- T1 sequence (looked up): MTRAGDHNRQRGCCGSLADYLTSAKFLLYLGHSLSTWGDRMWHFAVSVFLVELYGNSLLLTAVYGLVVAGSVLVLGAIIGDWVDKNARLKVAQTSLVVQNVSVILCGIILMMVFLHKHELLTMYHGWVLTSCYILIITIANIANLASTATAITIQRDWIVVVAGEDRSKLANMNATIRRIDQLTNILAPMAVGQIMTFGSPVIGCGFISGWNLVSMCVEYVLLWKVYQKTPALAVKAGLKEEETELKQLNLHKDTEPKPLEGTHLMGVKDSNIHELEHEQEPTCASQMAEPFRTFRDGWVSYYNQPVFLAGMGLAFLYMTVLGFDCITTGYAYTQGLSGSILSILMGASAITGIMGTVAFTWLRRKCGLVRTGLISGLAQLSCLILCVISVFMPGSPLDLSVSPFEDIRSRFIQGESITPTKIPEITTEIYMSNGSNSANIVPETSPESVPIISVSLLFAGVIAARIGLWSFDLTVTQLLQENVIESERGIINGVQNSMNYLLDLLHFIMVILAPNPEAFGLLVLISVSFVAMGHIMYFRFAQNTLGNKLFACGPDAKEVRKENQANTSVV
- Assay summary: cell-based or functional assay
Bridge positions count the residues as written; N and C are the ends. * marks the point of attachment. Isovaleryl = CC(C)CC(=O)*
Property label: Ferroportin internalization assay EC50

Previously resolved entries follow.
Binder | Property label | Recorded measurement
H-DTHFPCINFGPRSKGWVCK-NH2 (disulfide 6-18 (inferred)) [Hy-DTHFPCINFGPRSKGWVCK-NH2] | Ferroportin internalization assay EC50 | > 1 µM
H-DTHFPCIDFGPRSKGWVCK-NH2 (disulfide 6-18 (inferred)) [Hy-DTHFPCIDFGPRSKGWVCK-NH2] | Ferroportin internalization assay EC50 | > 1 µM
Isovaleryl-DTEFPCIKFEPRSKEWVCK-NH2 (disulfide 6-18 (inferred)) [Isovaleric acid-DTEFPCIKFEPRSKEWVCK-NH2] | Ferroportin internalization assay EC50 | > 1 µM
H-ADHFPCIIF-NH2 [Hy-ADHFPCIIF-NH2] | Ferroportin internalization assay EC50 | > 1 µM
H-DTHFPCIIFAC-NH2 (disulfide 6-11 (inferred)) [Hy-DTHFPCIIFAC-NH2] | Ferroportin internalization assay EC50 | > 1 µM
H-DTHFPCIIFGPRSRGHVCK-NH2 (not fully specified (bridges); printed as Hy-DTHFPCIIFGPRSRGHVCK-NH2; cysteine pairing not given here) [Hy-DTHFPCIIFGPRSRGHVCK-NH2] | Ferroportin internalization assay EC50 | > 1 µM

Inquiry: Using the record for H-ATHFPCIIF-NH2 [Hy-ATHFPCIIF-NH2] , report its Ferroportin internalization assay EC50.
Reply text: > 1 µM

Inquiry: Using the record for DTHFPCIIFXPHSKGWVC (N-terminal isovaleric acid; Sarc at 10; N-MeTrp at 16; C-terminal amide) [Isovaleric acid-DTHFPCIIF-[Sarc]-PHSKG[N-MeTrp]-VC-NH2] , report its Ferroportin internalization assay EC50.
Reply text: 0.009 µM

Inquiry: Using the record for Isovaleryl-DTHFGCIKFEPRSKEWVCK-NH2 (not fully specified (bridges); cysteine pairing not given here) [Isovaleric acid-DTHFGCIKFEPRSKEWVCK-NH2] , report its Ferroportin internalization assay EC50.
Reply text: > 1 µM

Inquiry: Using the record for Isovaleryl-DTHFECIIFGPRSKGWVCK-NH2 (not fully specified (bridges); cysteine pairing not given here) [Isovaleric acid-DTHFECIIFGPRSKGWVCK-NH2] , report its Ferroportin internalization assay EC50.
Reply text: > 1 µM

Inquiry: Using the record for H-DTHFPCIIFGPRSKGWNCK-NH2 (not fully specified (bridges); printed as Hy-DTHFPCIIFGPRSKGWNCK-NH2; cysteine pairing not given here) [Hy-DTHFPCIIFGPRSKGWNCK-NH2] , report its Ferroportin internalization assay EC50.
Reply text: > 1 µM

Inquiry: Using the record for DTHFPCIIFXPRSKGWVC (N-terminal isovaleric acid; Sarc at 10; N-MeTrp at 16; C-terminal amide) [Isovaleric acid-DTHFPCIIF-[Sarc]-PRSKG[N-MeTrp]-VC-NH2] , report its Ferroportin internalization assay EC50.
Reply text: 0.01 µM
